target or test system: T1, GST-DLG2 PDZ domain 2 (Homo sapiens (Human)), Q15700
T1 chain: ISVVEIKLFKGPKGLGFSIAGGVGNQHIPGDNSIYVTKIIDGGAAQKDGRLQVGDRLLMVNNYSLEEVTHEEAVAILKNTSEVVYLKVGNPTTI
protocol details: G' assay; note: key of the grades not given here
Form field: Classification (one value per entry).
I only need the number, in A450 class, no unit after it.

Record excerpt, results attached:
binder="LHNQASVPLEPRPLRRESEI (modifications not checked) [Kir2.1 (inwardly rect. K+ channel)]" assay_value=1
binder="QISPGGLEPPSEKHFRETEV (modifications not checked) [TAX]" assay_value=5
binder="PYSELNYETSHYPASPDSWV (modifications not checked) [catenin - delta 2]" assay_value=1
binder="KDITSDSENSNFRNEIQSLV (modifications not checked) [CD95]" assay_value=1
binder="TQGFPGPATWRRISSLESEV (modifications not checked) [NMDA Glutamate Receptor 2C (cysteine-free)]" assay_value=5

Look up Classification for this binder: GGGGGSGGGGGSGIESVKI (modifications not checked) [GLUR2 (glutamate receptor 2-modified)] 1

Next binder up: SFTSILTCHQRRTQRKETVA (modifications not checked) [GluR5-2 (rat)] 1

Next binder up: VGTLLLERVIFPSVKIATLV (modifications not checked) [AdenoE4 typ9] 5
